Taken from PubChem BioAssay (NCI).

# System: OVCAR-4 ovarian
# Measurement description: NCI tumour cell line growth inhibition, 48 h
Please go through the items and note down their TGI.

Input line: Checklist item: TGI tested on OVCAR-4 ovarian, entry `CCO/C(O)=C(/C(=N)N1CCOCC1)C(=O)Nc1ccc(F)cc1` , value?
Output line: > 100 µM

Input line: Checklist item: TGI tested on OVCAR-4 ovarian, entry `Cc1ccc(/C=N/Nc2cc(C)c3cccc(C)c3n2)s1` , value?
Output line: > 100 µM

Input line: Checklist item: TGI tested on OVCAR-4 ovarian, entry `O=[N+]([O-])c1ccc2[nH]c(=S)[nH]c(=S)c2c1` , value?
Output line: > 100 µM

Input line: Checklist item: TGI tested on OVCAR-4 ovarian, entry `CN(CCSCCN(C)C(=O)OC(C)(C)C)C(=O)OC(C)(C)C` , value?
Output line: > 100 µM

Input line: Checklist item: TGI tested on OVCAR-4 ovarian, entry `CCCCC#CC1=C(Br)C(=O)OC1` , value?
Output line: 11.3 µM

* * *

Please go through the items and note down their TGI.
# Tested on: SK-MEL-2 melanoma
# Measurement description: NCI tumour cell line growth inhibition, 48 h

Input line: Record request: TGI value, item `COC[C@@H](N=CC(C)(C)C)C(C)C`
Output line: > 100 µM

Input line: Record request: TGI value, item `Nc1nn2cc(F)cnc2c1C(=O)Nc1cncc(F)c1N1CCC(C(=O)N2CCN(C3COC3)CC2)CC1`
Output line: 0.821 µM

Input line: Record request: TGI value, item NC(CCCCCP(=O)(c1ccccc1)C1C=CC=CC1)C(=O)O (stereo unspecified)
Output line: > 100 µM

Input line: Record request: TGI value, item `CCCCOC(=O)CNC(=O)OC/C=C/C#CC#C/C=C/COC(=O)NCC(=O)OCCCC`
Output line: > 100 µM

Input line: Record request: TGI value, item `Cc1ccc(S(=O)(=O)Nc2ccccc2C=O)cc1`
Output line: 30.4 µM

Input line: Record request: TGI value, item COC(=O)C1=C(C(=O)OC)N(c2ccc(OC)cc2[N+](=O)[O-])C(c2ccc(C)cc2)=CC1c1ccc(OC)cc1OC (stereo unspecified)
Output line: > 80.4 µM

Input line: Record request: TGI value, item O=[N+]([O-])C[C@@]12O[C@]3(O)C4C5CC(C6C5C3C61)C42 (stereo partly specified)
Output line: > 100 µM

Input line: Record request: TGI value, item CCOC(=O)C(C#N)C1=CC(=O)C(=O)c2ccc(OC)cc21 (stereo unspecified)
Output line: 28.1 µM

Input line: Record request: TGI value, item `CN=C(n1ccnc1)n1ccnc1`
Output line: > 100 µM

Input line: Record request: TGI value, item COc1cc(C2c3cc4c(cc3OC(N3CCCCC3)C2C)OCO4)cc(OC)c1O (stereo unspecified)
Output line: 25.2 µM

Input line: Record request: TGI value, item `O=CCC1CCCCC1`
Output line: > 100 µM

Input line: Record request: TGI value, item CCCC(=O)NC(NC1CCCCC1)(C(=O)OCC)C(F)(F)F (stereo unspecified)
Output line: > 100 µM

Input line: Record request: TGI value, item CCN(CC)CCCN1CCc2c([nH]c3ccccc23)C1c1cccnc1 (stereo unspecified)
Output line: > 100 µM

Input line: Record request: TGI value, item CC1(C)COC(C2(C)C(=O)C=C(c3ccccc3)c3ccccc32)=N1 (stereo unspecified)
Output line: > 100 µM

Input line: Record request: TGI value, item COc1ccc(C2SC(N)=Nc3c2c(C)nn3C(=O)c2ccncc2)cc1OC (stereo unspecified)
Output line: > 10 µM

Input line: Record request: TGI value, item `CCCCCCNc1n[nH]c(=O)c2c1nnn2Cc1ccccc1`
Output line: > 100 µM

Input line: Record request: TGI value, item `Cc1n(Cc2ccccc2)c2c([n+]1C)C(=O)c1ccccc1C2=O`
Output line: 0.388 µM

Input line: Record request: TGI value, item `CCOC(=O)c1ccc(NC(=O)Oc2ccc3c(C)cc(=O)oc3c2)cc1`
Output line: 79 µM

Input line: Record request: TGI value, item `COc1cccc(CCNC(=O)Cc2ccccc2CCO)c1`
Output line: > 100 µM

Input line: Record request: TGI value, item `O=C(O)COc1ccc2c(=O)c3sc4c(=O)c5ccccc5c(=O)c4c3c(=O)c2c1`
Output line: 49.3 µM

Input line: Record request: TGI value, item `C/C=C(\C)C(=O)O[C@H]1C=CC(=O)O[C@H]1CCC(=O)[C@H](C)O`
Output line: 47.3 µM
